Target: Mitogen-activated protein kinase 14 (Homo sapiens, UniProt Q16539)
Sequence (Q16539 whole entry): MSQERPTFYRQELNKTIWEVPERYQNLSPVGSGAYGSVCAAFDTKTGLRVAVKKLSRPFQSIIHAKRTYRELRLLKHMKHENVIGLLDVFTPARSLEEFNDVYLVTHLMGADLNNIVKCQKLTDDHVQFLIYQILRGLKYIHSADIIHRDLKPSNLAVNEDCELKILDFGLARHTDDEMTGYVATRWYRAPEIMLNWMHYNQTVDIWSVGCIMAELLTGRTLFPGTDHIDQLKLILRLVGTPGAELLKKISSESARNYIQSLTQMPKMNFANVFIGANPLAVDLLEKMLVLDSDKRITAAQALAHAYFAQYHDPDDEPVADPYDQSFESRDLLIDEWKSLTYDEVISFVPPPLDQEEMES
Test: Dissociation constant at Tref against human Mitogen-activated protein kinase p38 alpha
property name: Kd (nM)

Solved cases (5 shown):
O=C(Nc1ccc(OCCN2CCOCC2)c2ccccc12)Nc1ccnn1-c1ccccc1 | 2400
Cc1ccc(-n2nc(C(C)(C)C)cc2NC(=O)Nc2ccccc2)cc1 | 16.8
CC(C)c1cc(NC(=O)Nc2ccc(OCCN3CCOCC3)c3ccccc23)n(-c2ccccc2)n1 | 3.4
CC(C)(C)c1cc(NC(=O)Nc2ccc(OCCN3CCOCC3)c3ccccc23)n(-c2ccccc2)n1 | 0.231
CC(C)(CO)c1cc(NC(=O)Nc2ccc(OCCN3CCOCC3)c3ccccc23)n(-c2ccccc2)n1 | 56.4

(A) Cn1nc(C(C)(C)C)cc1NC(=O)Nc1ccc(OCCN2CCOCC2)c2ccccc12
(B) Cc1ccc(-n2nc(C(C)(C)C)cc2NC(=O)Nc2cccc3ccccc23)cc1
Lookup: // which entry reports the smaller Kd, A or B ? To answer, give the label that identifies your chosen option.
Found: B
(B: 10.6 nM, A: 25.7 nM)
